- System: Roseburia intestinalis
- assay: growth AUC relative to DMSO control (median of replicates) (fraction); higher = more growth (less inhibition), active = hit call of the paper
- experimental-context: 20 µM; 24 h
Label rule, in plain words: growth AUC of 1 and up is condition met, under 1 is condition not met.

In [3]: df
Out[3]:
                              sample_smiles            study_target                cat
0  O=C(Nc1ccc(F)cc1-c1ccc(Cl)c(Cl)c1)c1cn[nH]c1C(F)F  Roseburia intestinalis  condition not met
1             S=C([S-])NCCNC(=S)[S-].[Mn+2]  Roseburia intestinalis  condition not met
2                    COC(=O)Cc1cccc2ccccc12  Roseburia intestinalis      condition met
3  CCOC(=O)c1cnn(C)c1S(=O)(=O)NC(=O)Nc1nc(OC)cc(OC)n1  Roseburia intestinalis      condition met
4                     NC(=S)Nc1cccc2ccccc12  Roseburia intestinalis  condition not met

* * *

- System: Bacteroides uniformis
- assay: growth AUC relative to DMSO control (median of replicates) (fraction); higher = more growth (less inhibition), active = hit call of the paper
- experimental-context: 20 µM; 24 h
Measured growth AUC determines class: range A: < 0.9; range B: ≥ 0.9 and < 1; range C: ≥ 1

In [3]: df
Out[3]:
                                    compound      cat
 0             S=C([S-])NCCNC(=S)[S-].[Zn+2]  range C
 1       [O-][n+]1nc(-n2ccnc2)nc2ccc(Cl)cc21  range C
 2  CC(C)OC(=O)N[C@H](C(=O)N[C@H](C)c1nc2ccc(F)cc2s1)C(C)C  range B
 3            CCCCN(C)C(=O)Nc1ccc(Cl)c(Cl)c1  range A
 4  CCOC(=O)/C(Cl)=C/c1cc(N2C(=O)C3=C(CCCC3)C2=O)ccc1Cl  range B
 5         CCCCOCCOC(=O)COc1nc(Cl)c(Cl)cc1Cl  range B
 6                       C=CCc1ccc(O)c(OC)c1  range C
 7  O=C(Nc1ccc(F)cc1-c1ccc(Cl)c(Cl)c1)c1cn[nH]c1C(F)F  range A
 8          CCNC(=O)[C@@H](C)OC(=O)Nc1ccccc1  range B
 9        FC(F)(F)C(=NOCC1OCCO1)c1ccc(Cl)cc1  range B
10              CCOc1ccc(NC(=O)OC(C)C)cc1OCC  range B
11                  CCN(CC)C(=O)SCc1ccccc1Cl  range B
12  C#CCOc1cc(-n2nc(C(C)(C)C)oc2=O)c(Cl)cc1Cl  range A
13  O=C(O)COc1cc(N2C(=O)C3=C(CCCC3)C2=O)c(F)cc1Cl  range C
14  O.O=C(Nc1ccc([N+](=O)[O-])cc1Cl)c1cc(Cl)ccc1O  range A
15  Cc1ccc2c(c1)[C@H](Nc1nc(N)nc(C(C)F)n1)[C@@H](C)C2 (stereo partly specified)  range B
16  CC1(C)C(C(=O)OC(C#N)c2cccc(Oc3ccccc3)c2)C1C(Br)C(Br)(Br)Br (stereo unspecified)  range B
17                  COc1c(Cl)ccc(Cl)c1C(=O)O  range B
18  S=C([S-])NCCNC(=S)[S-].S=C([S-])NCCNC(=S)[S-].[Mn+2].[Zn+2]  range C
19             CC(C)(SC(=O)N1CCCCC1)c1ccccc1  range B
